- study-target: SARS-CoV-2 nsp14 (Severe acute respiratory syndrome coronavirus 2)
- Type: biochemical
- test-settings: nsp14 pre-incubated with compound 1 h, n = 3; read-out: IC50 (± SD) MTase
Recorded pIC50, one value per entry.
Worth noting: pIC50 values are minus log10 of concentrations stated in mol/L.

1) CCP(CC)CC.[Au+].[Cl-] = 5.35

As a next step, examine the compound that follows.
Noted for [Cl][Au] [AuCl, gold(I) chloride] : its pIC50 reads 6.04

----------
- study-target: SARS-CoV-2 nsp14/nsp10 complex (Severe acute respiratory syndrome coronavirus 2)
- experimental-details: FRET-based exoribonuclease (ExoN) activity assay
- test-settings: nsp14/nsp10 pre-incubated with compound 1 h, n = 3; read-out: IC50 (± SD) ExoN
endpoint-name: pIC50
Worth noting: pIC50 values are minus log10 of concentrations stated in mol/L.

Here's what some known entries look like.
1. [Cl][Au] [AuCl, gold(I) chloride] = 5.24
2. O=S(=O)([O-])[S-].O=S(=O)([O-])[S-].[Au+].[Na+].[Na+].[Na+] [Na3Au(S2O3)2, gold(I) sodium thiosulfate] = 5.77

As a next step, examine the compound that follows.
Sample CCP(CC)CC.[Au+].[Cl-] [Au(PEt3)Cl, chloro(triethylphosphine)gold(I)] , system: SARS-CoV-2 nsp14/nsp10 complex (Severe acute respiratory syndrome coronavirus 2). Its pIC50 is 6.42

The values you see were collected from paper PMC12316777.
